Tgt: α4β1 (Homo sapiens, UniProt P05556+P13612)
Assay: Ramos Cell Adhesion Assay (α4β1 Mediated Adhesion/VCAM-1)
Assay type: cell-based
Parameters: Ramos cells, (50 μL at 2×10^6/mL) labeled with 5 μM Calcein AM; endogenous in cells; host or cells: Ramos cells
Measurement parameters: repeated in leukocytosis table, unit inferred; read-out: α4β1
Value kind: pIC50
Answers are plain numbers, as −log10 of the molar value.

### Prompt Record lookup: for α4β1 (Homo sapiens, UniProt P05556+P13612), what pIC50 belongs to O=C(Nc1ccc(CC(NC(=O)C2C3CCC(CC3)N2C(=O)CCc2ccccc2)C(=O)O)cc1)c1c(Cl)cncc1Cl (stereo not shown) ?
### Response 9.05

====

Tgt: human α4β7 (Homo sapiens, UniProt P13612+P26010)
Construct: expressed in transfected cells
Assay: α4β7-K562 Cell Adhesion Assay (α4β7 Mediated Adhesion/VCAM-1)
Assay type: cell-based
Measurement parameters: K562 cells expressing human α4β7 on recombinant hVCAM-1; read-out: α4β7 IC50
Value kind: pIC50
Numbers only, as −log10 of the molar value.

O=C(Nc1ccc(CC(NC(=O)C2C3CCC(CC3)N2C(=O)Cc2ccccc2C(F)(F)F)C(=O)O)cc1)c1c(Cl)cncc1Cl (stereo not drawn) [Cpd 2] ... 6.50

### Prompt For the molecule CC(C)(C)CCN1C2CCC(CC2)[C@H]1C(=O)N[C@@H](Cc1ccc(NC(=O)c2c(Cl)cncc2Cl)cc1)C(=O)O [Cpd 16] , what pIC50 is on record?
### Response 7.03

====

Tgt: α4β1 (Homo sapiens, UniProt P05556+P13612)
Assay: Ramos Cell Adhesion Assay (α4β1 Mediated Adhesion/VCAM-1)
Assay type: cell-based
Set-up: Ramos cells, (50 μL at 2×10^6/mL) labeled with 5 μM Calcein AM; endogenous in cells; host or cells: Ramos cells
Measurement parameters: Ramos cells on recombinant hVCAM-1; read-out: α4β1 IC50
Protocol: Ramos Cell Adhesion Assay α4β1 Mediated Adhesion/VCAM-1) Immulon […] plates (Dynex) were coated with 100 μL recombinant hVCAM-1 at 4.0 μg/mL in 0.05 M NaCO3 buffer pH 9.0 overnight at 4° C. (R&D Systems). Plates were washed 3 times in PBS with 1% BSA and blocked for 1 h @ room temperature in this buffer. PBS was removed and compounds to be tested (50 μL) were added at 2× concentration. […] The plate was read at 485 nm excitation and 530 nm emission.
Answer each item with its documented pIC50.
One number for each entry, as −log10 of the molar value.

Solved cases below.
O=C(Nc1ccc(CC(NC(=O)C2C3CCC(CC3)N2C(=O)OCc2ccccc2)C(=O)O)cc1)c1c(Cl)cncc1Cl (stereo not drawn) [Cpd 64] ... 8.05
O=C(Nc1ccc(CC(NC(=O)C2C3CCC(CC3)N2C(=O)OCc2ccccc2)C(=O)O)cc1)c1c(Cl)cncc1Cl (stereo not drawn) [Cpd 42] ... 8.10

### Prompt Record lookup: for α4β1 (Homo sapiens, UniProt P05556+P13612), what pIC50 belongs to CC(C)(C)CC(=O)N1C2CCC(CC2)C1C(=O)NC(Cc1ccc(NC(=O)c2c(Cl)cncc2Cl)cc1)C(=O)O (single isomer, unassigned) [Cpd 34] ?
### Response 7.85

====

Tgt: human α4β7 (Homo sapiens, UniProt P13612+P26010)
Construct: expressed in transfected cells
Sequence (P13612 34-1032): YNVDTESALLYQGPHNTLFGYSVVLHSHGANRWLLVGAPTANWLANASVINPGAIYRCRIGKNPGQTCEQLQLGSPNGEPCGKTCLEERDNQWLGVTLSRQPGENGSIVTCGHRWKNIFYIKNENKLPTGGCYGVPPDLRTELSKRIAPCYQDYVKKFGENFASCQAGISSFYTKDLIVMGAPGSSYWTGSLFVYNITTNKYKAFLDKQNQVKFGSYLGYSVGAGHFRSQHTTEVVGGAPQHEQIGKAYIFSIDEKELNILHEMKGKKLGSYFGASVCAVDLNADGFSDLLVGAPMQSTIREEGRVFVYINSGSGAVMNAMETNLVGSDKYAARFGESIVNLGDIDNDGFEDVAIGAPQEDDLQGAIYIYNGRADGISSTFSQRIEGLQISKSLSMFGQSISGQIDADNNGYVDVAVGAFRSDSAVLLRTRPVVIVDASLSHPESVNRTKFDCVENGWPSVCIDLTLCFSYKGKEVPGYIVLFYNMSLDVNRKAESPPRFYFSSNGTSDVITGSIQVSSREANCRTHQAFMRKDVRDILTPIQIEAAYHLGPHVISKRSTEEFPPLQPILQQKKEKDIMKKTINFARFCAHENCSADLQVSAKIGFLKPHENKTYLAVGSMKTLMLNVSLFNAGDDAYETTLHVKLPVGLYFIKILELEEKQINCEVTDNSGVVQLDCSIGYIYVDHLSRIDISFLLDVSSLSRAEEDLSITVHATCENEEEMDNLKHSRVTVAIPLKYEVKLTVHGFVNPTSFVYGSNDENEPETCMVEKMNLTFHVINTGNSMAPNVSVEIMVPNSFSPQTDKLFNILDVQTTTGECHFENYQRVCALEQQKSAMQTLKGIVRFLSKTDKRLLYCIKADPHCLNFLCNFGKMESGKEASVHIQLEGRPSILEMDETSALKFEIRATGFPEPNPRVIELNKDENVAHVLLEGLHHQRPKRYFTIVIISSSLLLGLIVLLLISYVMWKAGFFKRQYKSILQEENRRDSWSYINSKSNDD
Sequence (P26010 20-798): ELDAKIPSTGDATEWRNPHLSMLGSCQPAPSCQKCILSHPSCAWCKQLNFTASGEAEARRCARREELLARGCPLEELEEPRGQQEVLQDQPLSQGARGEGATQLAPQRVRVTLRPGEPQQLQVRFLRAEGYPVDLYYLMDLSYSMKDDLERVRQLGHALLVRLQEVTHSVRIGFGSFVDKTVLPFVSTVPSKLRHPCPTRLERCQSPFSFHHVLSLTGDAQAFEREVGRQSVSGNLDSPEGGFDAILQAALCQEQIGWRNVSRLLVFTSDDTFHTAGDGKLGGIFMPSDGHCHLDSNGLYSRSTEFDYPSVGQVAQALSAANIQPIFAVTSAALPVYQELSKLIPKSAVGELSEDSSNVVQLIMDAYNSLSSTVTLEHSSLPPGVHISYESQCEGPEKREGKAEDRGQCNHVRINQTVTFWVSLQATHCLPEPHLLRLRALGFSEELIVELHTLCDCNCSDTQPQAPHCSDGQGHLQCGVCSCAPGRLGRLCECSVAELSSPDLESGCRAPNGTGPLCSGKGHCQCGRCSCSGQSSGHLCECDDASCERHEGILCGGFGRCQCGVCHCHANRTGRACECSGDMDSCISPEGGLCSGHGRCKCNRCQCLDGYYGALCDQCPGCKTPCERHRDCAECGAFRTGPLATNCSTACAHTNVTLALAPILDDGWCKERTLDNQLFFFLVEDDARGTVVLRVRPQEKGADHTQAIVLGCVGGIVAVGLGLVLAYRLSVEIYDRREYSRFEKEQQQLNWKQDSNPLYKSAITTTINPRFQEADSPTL
Assay: α4β7-K562 Cell Adhesion Assay (α4β7 Mediated Adhesion/VCAM-1)
Assay type: cell-based
Measurement parameters: K562 cells expressing human α4β7 on recombinant hVCAM-1; read-out: α4β7 IC50
Answer each item with its documented pIC50.
Numbers only, as −log10 of the molar value.

Solved cases below.
COc1cc(CC(=O)N2C3CCC(CC3)C2C(=O)NC(Cc2ccc(NC(=O)c3c(Cl)cncc3Cl)cc2)C(=O)O)cc(OC)c1 (centres unmarked) ... 6.97
O=C(Nc1ccc(CC(NC(=O)C2C3CCC(CC3)N2C(=O)CCC2CCCC2)C(=O)O)cc1)c1c(Cl)cncc1Cl (centres unmarked) ... 6.82
O=C(Nc1ccc(CC(NC(=O)C2C3CCC(CC3)N2C(=O)CCc2ccc(Cl)cc2)C(=O)O)cc1)c1c(Cl)cncc1Cl (centres unmarked) ... 7.62

For each listed entry, give its pIC50.
1. O=C(Nc1ccc(CC(NC(=O)C2C3CCC(CC3)N2C(=O)CCc2ccc(C(F)(F)F)cc2)C(=O)O)cc1)c1c(Cl)cncc1Cl (centres unmarked)
2. COc1cccc(CCC(=O)N2C3CCC(CC3)C2C(=O)NC(Cc2ccc(NC(=O)c3c(Cl)cncc3Cl)cc2)C(=O)O)c1 (centres unmarked)
3. O=C(Nc1ccc(CC(NC(=O)C2C3CCC(CC3)N2C(=O)Cc2ccncc2)C(=O)O)cc1)c1c(Cl)cncc1Cl (centres unmarked)
4. Cc1ccnn1CC(=O)N1C2CCC(CC2)C1C(=O)NC(Cc1ccc(NC(=O)c2c(Cl)cncc2Cl)cc1)C(=O)O (centres unmarked)
5. COc1ccc(OC)c(C(=O)N2C3CCC(CC3)C2C(=O)NC(Cc2ccc(NC(=O)c3c(Cl)cncc3Cl)cc2)C(=O)O)c1 (centres unmarked)
6. O=C(Nc1ccc(CC(NC(=O)C2C3CCC(CC3)N2C(=O)Cc2cccnc2)C(=O)O)cc1)c1c(Cl)cncc1Cl (centres unmarked)
7. O=C(Nc1ccc(CC(NC(=O)C2C3CCC(CC3)N2C(=O)c2ccccc2F)C(=O)O)cc1)c1c(Cl)cncc1Cl (mixture of isomers)
8. O=C(Nc1ccc(CC(NC(=O)C2C3CCC(CC3)N2C(=O)Cc2c(Cl)cccc2Cl)C(=O)O)cc1)c1c(Cl)cncc1Cl (centres unmarked)

### Response
1. 7.12
2. 8.05
3. 7.49
4. 7.41
5. 5.99
6. 7.21
7. 6.82
8. 6.41

For each listed entry, give its pIC50.
1. COc1ccccc1CC(=O)N1C2CCC(CC2)C1C(=O)NC(Cc1ccc(NC(=O)c2c(Cl)cncc2Cl)cc1)C(=O)O (centres unmarked)
2. O=C(Nc1ccc(CC(NC(=O)C2C3CCC(CC3)N2C(=O)C#Cc2ccccc2)C(=O)O)cc1)c1c(Cl)cncc1Cl (centres unmarked)
3. COc1ccc(CC(=O)N2C3CCC(CC3)C2C(=O)NC(Cc2ccc(NC(=O)c3c(Cl)cncc3Cl)cc2)C(=O)O)cc1 (centres unmarked)
4. O=C(Nc1ccc(CC(NC(=O)C2C3CCC(CC3)N2C(=O)Nc2ccccc2)C(=O)O)cc1)c1c(Cl)cncc1Cl (centres unmarked)
5. O=C(Nc1ccc(CC(NC(=O)C2C3CCC(CC3)N2C(=O)c2ccccc2C(F)(F)F)C(=O)O)cc1)c1c(Cl)cncc1Cl (centres unmarked)

### Response
[7.57, 7.57, 7.15, 6.54, 6.13]
